Cited source: ChEMBL document CHEMBL3808332

Molecular target: Peptide deformylase (Staphylococcus aureus, UniProt P68826)
Sequence (P68826 whole entry): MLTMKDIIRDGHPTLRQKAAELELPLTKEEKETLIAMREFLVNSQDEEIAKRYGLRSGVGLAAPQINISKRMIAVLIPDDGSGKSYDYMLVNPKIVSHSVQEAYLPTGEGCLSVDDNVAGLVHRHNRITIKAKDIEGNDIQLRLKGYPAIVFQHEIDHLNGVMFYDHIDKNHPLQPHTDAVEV
PARAMETER: IC50 (µM)
One number for each entry, in µM.

[
  {
    "SMILES_INPUT": "CC(C)(C)[C@H](NC(=O)[C@H](CC1CCCC1)CN(O)C=O)C(=O)N1CCC(NCc2ccc(C#N)cc2)CC1",
    "IC50 / µM": 0.03
  }
]

Continue with the next compound.
Lookup result for "CC(C)(C)[C@H](NC(=O)[C@H](CC1CCCC1)CN(O)C=O)C(=O)N1CCC(NCc2cc(F)c(F)cc2F)CC1" ; measured IC50: 0.03

====

tested on: Pseudomonas aeruginosa; assay: Antibacterial activity against Pseudomonas aeruginosa after 24 hrs by microdilution method; assay type: functional
PARAMETER: MIC

[
  {
    "SMILES_INPUT": "CN[C@@H](CC(C)C)C(=O)N[C@H]1C(=O)N[C@@H](CC(N)=O)C(=O)N[C@H]2C(=O)N[C@H]3C(=O)N[C@H](C(=O)N[C@@H](C(=O)O)c4cc(O)cc(O)c4-c4cc3ccc4O)[C@H](O)c3ccc(c(Cl)c3)Oc3cc2cc(c3O[C@H]2O[C@@H](CO)[C@H](O)[C@@H](O)[C@@H]2O[C@@H]2C[C@@](C)(N)[C@@H](O)[C@@H](C)O2)Oc2ccc(cc2Cl)[C@H]1O",
    "MIC": "> 50 µg/mL"
  }
]

"CC(C)(C)[C@H](NC(=O)[C@H](CC1CCCC1)CN(O)C=O)C(=O)N1CCC(NCc2ccc3c(c2)OCO3)CC1" yielded MIC of > 50 µg/mL

====

Please respond with reported half-life for every item in the list.
test: Apparent terminal half life in iv/po dosed mouse plasma by LC-MS/MS analysis; assay type: ADME, organism-based; conditions: read-out: betat1/2(app) (converted)

[
  {
    "SMILES_INPUT": "CC(C)(C)[C@H](NC(=O)[C@H](CC1CCCC1)CN(O)C=O)C(=O)N1CCC(NCc2ccc(C#N)cc2)CC1",
    "half-life": "21.6 min"
  },
  {
    "SMILES_INPUT": "CC(C)(C)[C@H](NC(=O)[C@H](CC1CCCC1)CN(O)C=O)C(=O)N1CCC(NC(=O)c2ccc(C#N)cc2)CC1",
    "half-life": "55.2 min"
  }
]

half-life reading for "CC(C)(C)[C@H](NC(=O)[C@H](CC1CCCC1)CN(O)C=O)C(=O)N1CCC(NCc2cc(F)c(F)cc2F)CC1" : 63 min

====

Assignment: determine reported Vd for the given molecules.
assay: Volume of distribution at steady state in iv/po dosed mouse plasma by LC-MS/MS analysis; type: ADME, organism-based; conditions: read-out: Vdss
One number for each entry, in L/kg.

// worked examples, Vd included
[
  {
    "SMILES_INPUT": "CC(C)(C)[C@H](NC(=O)[C@H](CC1CCCC1)CN(O)C=O)C(=O)N1CCC(NC(=O)c2ccc(C#N)cc2)CC1",
    "Vd / L/kg": 2.54
  },
  {
    "SMILES_INPUT": "CC(C)(C)[C@H](NC(=O)[C@H](CC1CCCC1)CN(O)C=O)C(=O)N1CCC(NCc2ccc(C#N)cc2)CC1",
    "Vd / L/kg": 3.49
  }
]

Lab note: measured Vd of "CC(C)(C)[C@H](NC(=O)[C@H](CC1CCCC1)CN(O)C=O)C(=O)N1CCC(NCc2cc(F)c(F)cc2F)CC1" was 1.71

====

tested on: Pseudomonas aeruginosa; assay: Antibacterial activity against Pseudomonas aeruginosa after 24 hrs by microdilution method; type: functional
Can you tell me MIC for the items I'm about to list?

Examples from the recorded data:
[
  {
    "SMILES_INPUT": "CC(C)(C)[C@H](NC(=O)[C@H](CC1CCCC1)CN(O)C=O)C(=O)N1CCC(Nc2ccc3cn[nH]c3c2)CC1",
    "EXPERIMENTAL_TARGET": "Pseudomonas aeruginosa",
    "MIC": "> 50 µg/mL"
  },
  {
    "SMILES_INPUT": "CC(C)(C)[C@H](NC(=O)[C@H](CC1CCCC1)CN(O)C=O)C(=O)N1CCC(N)CC1",
    "EXPERIMENTAL_TARGET": "Pseudomonas aeruginosa",
    "MIC": "> 50 µg/mL"
  }
]

Kindly review the next compound as well.
Just so you know, measured MIC for "CC(C)(C)[C@H](NC(=O)[C@H](CC1CCCC1)CN(O)C=O)C(=O)N1CCC(Nc2ccc3c(c2)OCO3)CC1" came out at > 50 µg/mL

====

test system: Staphylococcus aureus; test: Antibacterial activity against methicillin-resistant Staphylococcus aureus after 24 hrs by microdilution method; type: functional
Exercise: for every item that follows, state its recorded MIC.
Give bare numbers, in µg/mL.

[
  {
    "SMILES_INPUT": "CC(=O)NC[C@H]1CN(c2ccc(N3CCOCC3)c(F)c2)C(=O)O1",
    "MIC / µg/mL": 1.6
  },
  {
    "SMILES_INPUT": "CC(C)(C)[C@H](NC(=O)[C@H](CC1CCCC1)CN(O)C=O)C(=O)N1CCC(NCc2ccc(F)cc2)CC1",
    "MIC / µg/mL": 6.3
  },
  {
    "SMILES_INPUT": "CC(C)(C)[C@H](NC(=O)[C@H](CC1CCCC1)CN(O)C=O)C(=O)N1CCC(Nc2ccccc2)CC1",
    "MIC / µg/mL": 6.3
  },
  {
    "SMILES_INPUT": "CC(C)(C)[C@H](NC(=O)[C@H](CC1CCCC1)CN(O)C=O)C(=O)N1CCC(NCc2ccccc2)CC1",
    "MIC / µg/mL": 3.1
  }
]

# batch: return MIC for each of the 4 compounds below
1. CC(C)(C)[C@H](NC(=O)[C@H](CC1CCCC1)CN(O)C=O)C(=O)N1CCC(Nc2ccc3c(c2)OCO3)CC1
2. CC(C)(C)[C@H](NC(=O)[C@H](CC1CCCC1)CN(O)C=O)C(=O)N1CCC(NCc2cc(F)c(F)cc2F)CC1
3. CC(C)(C)[C@H](NC(=O)[C@H](CC1CCCC1)CN(O)C=O)C(=O)N1CCC(NCc2ccc(C#N)cc2)CC1
4. COc1ccc(CNC2CCN(C(=O)[C@@H](NC(=O)[C@H](CC3CCCC3)CN(O)C=O)C(C)(C)C)CC2)cc1

Result ::
1: 6.3; 2: 1.6; 3: 3.1; 4: 12.5
